- measurement-target: NADH-ubiquinone oxidoreductase chain 1 (Bos taurus)
- assay-procedure: Inhibition of Bos taurus (beef) heart NAD1 assessed as NADH-ubiquinone oxidoreductase activity
assay-metric: IC50 (µM)

CCCCCCCCC(=O)CC(=O)c1ccc[nH]1 :: 14.3
CC(C(=O)C(C)c1cccc(Oc2ccccc2)c1)C(=O)N1C=CCC1 (single isomer, unassigned; diastereomer 2) :: 16.4
CC1=C(C(C)c2cccc(Oc3ccccc3)c2)OC2C(O)CCN2C1=O (single isomer, unassigned; diastereomer 1) :: 14.3

###

Catalogue of molecules with associated pIC50
- measurement-target: NADH-ubiquinone oxidoreductase chain 1 (Bos taurus, UniProt P03887)
- Sequence (P03887 whole entry): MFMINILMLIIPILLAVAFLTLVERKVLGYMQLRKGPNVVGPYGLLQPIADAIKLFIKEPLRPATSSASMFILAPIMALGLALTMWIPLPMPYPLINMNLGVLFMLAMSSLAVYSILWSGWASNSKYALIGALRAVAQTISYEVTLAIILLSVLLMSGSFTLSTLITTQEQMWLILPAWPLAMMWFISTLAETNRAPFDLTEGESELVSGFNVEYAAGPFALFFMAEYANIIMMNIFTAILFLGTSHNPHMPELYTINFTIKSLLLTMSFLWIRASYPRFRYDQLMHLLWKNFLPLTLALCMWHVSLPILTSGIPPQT
- assay-procedure: Inhibition of Bos taurus (beef) heart NAD1 assessed as NADH oxidase activity
- test-settings: read-out: IC50
pIC50: −log10 of the molar value.
assay-metric: pIC50

CCCCCCCCC(=O)CC(=O)c1ccc[nH]1 :: 5.07
CC(C(=O)C(C)c1cccc(Oc2ccccc2)c1)C(=O)N1CC[C@H](O)C1 (single isomer, unassigned; diastereomer 1) :: 4.38
CCCCCCCC(=O)C(C)C(=O)N1C=CCC1 (stereo not given) :: 5.34
CC(C(=O)N1C=CCC1)c1cccc(Oc2ccccc2)c1 (stereo not given) :: 5.17
CC(C(=O)C(C)c1cccc(Oc2ccccc2)c1)C(=O)N1C=CCC1 (single isomer, unassigned; diastereomer 1) :: 5.41
